Target: T1, human DLL3 antigen (human, UniProt Q9NYJ7 27-492, limits assumed)
T1 construct: also called immobilized human DLL3; recombinant human DLL3
T1 sequence (looked up): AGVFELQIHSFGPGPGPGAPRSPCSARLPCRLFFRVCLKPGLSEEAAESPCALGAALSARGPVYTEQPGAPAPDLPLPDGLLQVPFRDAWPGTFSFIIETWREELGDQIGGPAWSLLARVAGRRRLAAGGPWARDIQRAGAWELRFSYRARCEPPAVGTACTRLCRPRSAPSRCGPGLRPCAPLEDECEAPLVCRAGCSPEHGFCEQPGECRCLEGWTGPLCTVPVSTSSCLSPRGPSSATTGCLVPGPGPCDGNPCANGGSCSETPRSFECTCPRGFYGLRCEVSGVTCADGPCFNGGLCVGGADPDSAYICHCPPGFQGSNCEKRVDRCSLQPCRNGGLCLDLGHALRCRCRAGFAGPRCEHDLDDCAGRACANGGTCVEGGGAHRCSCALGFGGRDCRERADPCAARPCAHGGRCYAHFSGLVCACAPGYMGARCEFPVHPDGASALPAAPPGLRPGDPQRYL
Experiment: ELISA or flow cytometry screen

>  <Binder>
SC16.56 (antibody, V domains shown, murine mAb; also called anti-human/mouse DLL3 (SC16.56)) VH: QIQLVQSGPELKKPGETVKISCKASGYTFTNYGMNWVKQAPGKGLKWMAWINTYTGEPTYADDFKGRFAFSLETSASTASLQIINLKNEDTATYFCARIGDSSPSDYWGQGTTLTVSS VL: SIVMTQTPKFLLVSAGDRVTITCKASQSVSNDVVWYQQKPGQSPKLLIYYASNRYTGVPDRFAGSGYGTDFSFTISTVQAEDLAVYFCQQDYTSPWTFGGGTKLEIR

>  <binding result>
binds

$$$$
>  <Binder>
SC16.34 (antibody, V domains shown, murine mAb) VH: QIQLVQSGPELKRPGETVKISCKASGYTFTNYGMNWVKQAPGKGLKWMGWINTYTGDPTYADDFKGRFAFSLETSASTAYLQINNLKNEDTATYFCARIGGNSPSDYWGQGTSLTVSS VL: SIVMTQTPKFLLVSAGDRVTITCKASQSVSNDVAWYQQKPGQSPKLLIYYASNRYSGVPDRFTGSGYGTDFTFTISTVQAEDLAVYFCQQDYSSPWTFGGGTKLEIK

>  <binding result>
binds

$$$$
>  <Binder>
SC16.61 (antibody, V domains shown, murine mAb) VH: EVLLQRSGPDLVKPGASVTIPCKASGYTFTDYNMDWVKQSHGKSLEWIGNINTYNGGTIYNQKFKGKATLTVDKPSSTAYMELRSLTSEDTAVYYCARRLRYGGHYFDYWGQGTALTVSS VL: DIVMTQSTSSLAMSVGQKVTMSCKSSQSLLNSSNQKNYLAWYQQEPGQSPKLLVSFASTRESGVPDRFTGSGSGTDFTLTISGVQAEDLAVYYCQQHYSIPLTFGAGTKLELK

>  <binding result>
binds

$$$$
